experiment-description: Hemolytic effect on human red cells
Type: cell-based
condition-context: human, red cells, pH 7.4; 5 mM, 1 hour, 37° C.; read-out: Hemolysis (% of total hemoglobin concentration)
measurement-label: hemolysis at 1 h, 5000 µM (%)
Answers are plain numbers, in %.

Worked set:
compound | result
COc1cc(NC(C)CCCN)c2ncccc2c1 (stereo not drawn) [Primaquine, reference compound] | 2.8
COc1cc(NC(C)CCCNC(=O)CC[C@H](N)C(=O)O)c2ncccc2c1 (stereo partly drawn) [gGLU-PQ, N-(γ-L-glutamyl)primaquine] | 0.58

Next up:
Incoming: Param item = COc1cc(NC(C)CCCNC(=O)[C@@H]2CCC(=O)N2)c2ncccc2c1 (stereo partly drawn) [pGLU-PQ, N-(α-L-pyroglutamyl)primaquine] ; retrieve measured hemolysis at 1 h, 5000 µM.
Outgoing: 0.44

---

experiment-description: Hemolytic effect on human red cells
Format: cell-based
condition-context: human, red cells, pH 7.4; 2 mM, 1 hour, 37° C.; read-out: Hemolysis (% of total hemoglobin concentration)
measurement-label: hemolysis at 1 h, 2000 µM
Numeric answer plus unit only.

compound | hemolysis at 1 h, 2000 µM
COc1cc(NC(C)CCCNC(=O)[C@@H]2CCC(=O)N2)c2ncccc2c1 (stereo partly drawn) [pGLU-PQ, N-(α-L-pyroglutamyl)primaquine] | 0.24%

Next up:
Incoming: Param item = COc1cc(NC(C)CCCN)c2ncccc2c1 (centres unmarked) [Primaquine, reference compound] ; retrieve measured hemolysis at 1 h, 2000 µM.
Outgoing: 2.3%

---

experiment-description: Stability in the presence of fetal calf serum
Assay type: in vitro ADME
condition-context: bovine, fetal calf serum, fetal calf serum 95%, 37° C., 3 h; read-out: Relative concentration of compound (% of initial concentration)
measurement-label: remaining at 3 h (%)
Numbers only, in %.

Incoming: Param item = COc1cc(NC(C)CCCN)c2ncccc2c1 (stereo not shown) [Primaquine, reference compound] ; retrieve measured remaining at 3 h.
Outgoing: 77

---

experiment-description: Hemolytic effect on human red cells
Format: cell-based
condition-context: human, red cells, pH 7.4; 10 mM, 1 hour, 37° C.; read-out: Hemolysis (% of total hemoglobin concentration)
measurement-label: hemolysis at 1 h, 10000 µM (%)
One number for each entry, in %.

compound | result
COc1cc(NC(C)CCCN)c2ncccc2c1 (centres unmarked) [Primaquine, reference compound] | 4.7

Incoming: Param item = COc1cc(NC(C)CCCNC(=O)[C@@H]2CCC(=O)N2)c2ncccc2c1 (stereo partly drawn) [pGLU-PQ, N-(α-L-pyroglutamyl)primaquine] ; retrieve measured hemolysis at 1 h, 10000 µM.
Outgoing: 2.34

---

experiment-description: Stability in the presence of fetal calf serum
Type: in vitro ADME
condition-context: bovine, fetal calf serum, fetal calf serum 95%, 37° C., 6 h; read-out: Relative concentration of compound (% of initial concentration)
measurement-label: remaining at 6 h (%)
Give bare numbers, in %.

Incoming: Param item = COc1cc(NC(C)CCCN)c2ncccc2c1 (stereo not shown) [Primaquine, reference compound] ; retrieve measured remaining at 6 h.
Outgoing: 34

---

Answer each item with its documented remaining at 1 h.
experiment-description: Stability in the presence of fetal calf serum
Assay type: in vitro ADME
condition-context: bovine; fetal calf serum 95%, 37° C., 1 h; read-out: Relative concentration of compound (% of initial concentration)
One number for each entry, in %.

compound | output-unit | result
COc1cc(NC(C)CCCNC(=O)CC[C@H](N)C(=O)O)c2ncccc2c1 (some centres unmarked) | % | 96

Next up:
Incoming: Param item = COc1cc(NC(C)CCCNC(=O)[C@@H]2CCC(=O)N2)c2ncccc2c1 (some centres unmarked) ; retrieve measured remaining at 1 h.
Outgoing: 100
